Where these numbers come from: patent US20050101595A1

ASSAY TARGET: CDK2/Cyclin A (Homo sapiens, UniProt P24941)
TEST: Inhibition of CDK2/Cyclin A Retinoblastoma Kinase Activity
RUN CONDITIONS: apparent Ki, CDK2/proteolyzed cyclin A, Rb fragment substrate, 25 μM ATP
Counter-ions that a name gives are not always drawn.
Catalogue of molecules with associated Ki
Just the number in nM, nothing appended.

COC(=O)c1sccc1S(=O)(=O)N1CCC(Nc2nc(N)c(C(=O)c3c(F)cccc3F)s2)CC1 [Example F10]; 7.9
CN(C)CCSCCCS(=O)(=O)N1CCC(Nc2nc(N)c(C(=O)c3c(F)cccc3F)s2)CC1 [Example K24]; 5.9
Nc1nc(NC2CCN(S(=O)(=O)c3ccc(C4=NCCO4)cc3)CC2)sc1C(=O)c1c(F)cccc1F [Example J5]; 2.8
COc1cc(C(=O)N2CCC(Nc3nc(N)c(C(=O)c4c(F)cccc4F)s3)CC2)ccc1C [Example D12, Trifluoroacetic Acid Salt]; 29
Nc1nc(NC2CCN(S(=O)(=O)c3cccnc3)CC2)sc1C(=O)c1c(F)cccc1F [Example F23]; 2.8

May I ask what Ki has been recorded for C[C@@H]1CN(Cc2ccc(S(=O)(=O)N3CCC(Nc4nc(N)c(C(=O)c5c(F)cccc5F)s4)CC3)cc2)C[C@H](C)N1 [Example J10, Hydrochloride Salt] ?
1.7

May I ask what Ki has been recorded for Nc1nc(NC2CCN(S(N)(=O)=O)CC2)sc1C(=O)c1c(F)cccc1F [Example E4] ?
2.7

* * *

ASSAY TARGET: human CDK4 and genetically truncated (1-264) cyclin D3 (Homo sapiens)
TEST: Inhibition of CDK4/Cyclin D Retinoblastoma Kinase Activity
RUN CONDITIONS: apparent Ki, CDK4/truncated cyclin D3, Rb fragment substrate, 25 μM ATP
Structures can show the parent of a compound that is named as a salt.
ENDPOINT LABEL: Ki (nM)
Just the number in nM, nothing appended.

CC1CCC(C)N1CCS(=O)(=O)N1CCC(Nc2nc(N)c(C(=O)c3c(F)cccc3F)s2)CC1 (mixture of isomers) [Example K26, Trifluoroacetic Acid Salt]; 2.1
Nc1nc(NC2CCN(S(=O)(=O)CCN3CCC(c4ccccc4)C3)CC2)sc1C(=O)c1c(F)cccc1F (stereo not shown) [Example N5, Hydrochloride Salt]; 1.5
Cc1cc(C)cc(CC(=O)N2CCC(Nc3nc(N)c(C(=O)c4c(F)cccc4F)s3)CC2)c1; 62
Nc1nc(NC2CCN(S(=O)(=O)CCn3cccc3)CC2)sc1C(=O)c1c(F)cccc1F [Example K34, Trifluoroacetic Acid Salt]; 5.4

May I ask what Ki has been recorded for Cc1cc(C(=O)N2CCC(Nc3nc(N)c(C(=O)c4c(F)cccc4F)s3)CC2)ccc1Cl ?
32

May I ask what Ki has been recorded for Nc1nc(NC2CCN(S(=O)(=O)CCCN3CCOCC3)CC2)sc1C(=O)c1c(F)cccc1F ?
4.7

May I ask what Ki has been recorded for Nc1nc(NC2CCN(C(=S)Oc3ccc(F)cc3)CC2)sc1C(=O)c1c(F)cccc1F ?
10

* * *

Tested on: HCT-116 cell line
TEST: Inhibition of cell growth, tetrazolium salt (MTT) assay
Format: cell-based
RUN CONDITIONS: 0.25 μM compound; HCT-116; Table 4
Just so you know, the groups by HCT-116 % Inhibition at 0.25 μM go like this: bottom end (below 30%), midrange (30% to below 40%), top end (40% or more)

Nc1nc(NC2CCN(C(=O)c3ccccc3)CC2)sc1C(=O)c1c(F)cccc1F [Example Q9]; midrange

Where would Nc1nc(NC2CCN(C(=O)c3ccccc3[N+](=O)[O-])CC2)sc1C(=O)c1c(F)cccc1F [Example Q68] land among the classes by reported HCT-116 % Inhibition at 0.25 μM?
midrange

Where would CCCCCc1ccc(C(=O)N2CCC(Nc3nc(N)c(C(=O)c4c(F)cccc4F)s3)CC2)cc1 [Example Q37] land among the classes by reported HCT-116 % Inhibition at 0.25 μM?
midrange

Where would Nc1nc(NC2CCN(C(=O)c3cc([N+](=O)[O-])cc([N+](=O)[O-])c3)CC2)sc1C(=O)c1c(F)cccc1F [Example Q70] land among the classes by reported HCT-116 % Inhibition at 0.25 μM?
bottom end

* * *

Test system: HCT-116 cell line
TEST: Inhibition of cell growth, tetrazolium salt (MTT) assay
Format: cell-based
RUN CONDITIONS: Homo sapiens, HCT-116, 120 h, first HCT-116 column (c4); MTT, three to five days; read-out: HCT-116 IC50
Procedure: Inhibition of Cell Growth: Assessment of Cytotoxicity: Inhibition of cell growth was measured using the tetrazolium salt assay, which is based on the ability of viable cells to reduce 3-(4,5-dimethylthiazol-2-yl)-2,5-[2H]-diphenyltetrazolium bromide (MTT) to formazan (Mossman, Journal of Immunological Methods, vol. 65 (1983), pp. 55-58). The water-insoluble purple formazan product was then detected spectrophotometrically. […]
Structures can show the parent of a compound that is named as a salt.
ENDPOINT LABEL: pIC50
Scale for pIC50: -log10 of concentration given in mol/L; no unit attached.

Requested read-out pIC50, target or system HCT-116 cell line, entry Nc1nc(NC2CCN(S(=O)(=O)c3ccc(SCCN4CCOCC4)nc3)CC2)sc1C(=O)c1c(F)cccc1F [Example L7, Dihydrochloride]
7.02

Requested read-out pIC50, target or system HCT-116 cell line, entry Nc1nc(NC2CCN(S(=O)(=O)CCN3CCCC3c3ccccc3)CC2)sc1C(=O)c1c(F)cccc1F (stereo not drawn) [Example K29, Trifluoroacetic Acid Salt]
6.80

Requested read-out pIC50, target or system HCT-116 cell line, entry Nc1nc(NC2CCN(S(=O)(=O)c3ccc(OCCN4CCOCC4)nc3)CC2)sc1C(=O)c1c(F)cccc1F [Example H2, Hydrochloride]
7.10

Requested read-out pIC50, target or system HCT-116 cell line, entry Nc1nc(NC2CCN(S(=O)(=O)c3ccc(CCN4CCOCC4)nc3)CC2)sc1C(=O)c1c(F)cccc1F [Example N3, Hydrochloride Salt]
6.77

Requested read-out pIC50, target or system HCT-116 cell line, entry CN1CCN(c2ccc(S(=O)(=O)N3CCC(Nc4nc(N)c(C(=O)c5c(F)cccc5F)s4)CC3)cn2)CC1
7.54

* * *

ASSAY TARGET: human CDK4 and genetically truncated (1-264) cyclin D3 (Homo sapiens)
TEST: Inhibition of CDK4/Cyclin D Retinoblastoma Kinase Activity
Format: biochemical
RUN CONDITIONS: at 0.03 μM
The label Fulfilled is reserved for CDK4 % Inhibition at 0.03 μM strictly under 40%; Not fulfilled covers values equal to or above it.

Bench note: check whether Nc1nc(NC2CCN(C(=O)c3ccc4c(c3)C(=O)c3ccccc3C4=O)CC2)sc1C(=O)c1c(F)cccc1F shows CDK4 % Inhibition at 0.03 μM below 40%
Not fulfilled

* * *

Catalogue of compounds with associated CDK2 % Inhibition at 0.03 μM
ASSAY TARGET: CDK2/Cyclin A (Homo sapiens)
TEST: Inhibition of CDK2/Cyclin A Retinoblastoma Kinase Activity
Type: biochemical
RUN CONDITIONS: at 0.03 μM
Just the number in %, nothing appended.

Solved entries:
Nc1nc(NC2CCN(C(=O)c3ccc(Cl)cc3Cl)CC2)sc1C(=O)c1c(F)cccc1F; 44
Nc1nc(NC2CCN(C(=O)c3cc(C(F)(F)F)ccc3C(F)(F)F)CC2)sc1C(=O)c1c(F)cccc1F; 11
CCCSc1ncccc1C(=O)N1CCC(Nc2nc(N)c(C(=O)c3c(F)cccc3F)s2)CC1; 58
Cc1onc(-c2ccccc2Cl)c1C(=O)N1CCC(Nc2nc(N)c(C(=O)c3c(F)cccc3F)s2)CC1; 4

With those in mind, consider the next compound.
May I ask what CDK2 % Inhibition at 0.03 μM has been recorded for Nc1nc(NC2CCN(C(=O)CC3CCCC3)CC2)sc1C(=O)c1c(F)cccc1F [Example R96] ?
−20

* * *

ASSAY TARGET: human CDK4 and genetically truncated (1-264) cyclin D3 (Homo sapiens, UniProt P11802)
Sequence (P11802 whole entry, the tested form may be a part): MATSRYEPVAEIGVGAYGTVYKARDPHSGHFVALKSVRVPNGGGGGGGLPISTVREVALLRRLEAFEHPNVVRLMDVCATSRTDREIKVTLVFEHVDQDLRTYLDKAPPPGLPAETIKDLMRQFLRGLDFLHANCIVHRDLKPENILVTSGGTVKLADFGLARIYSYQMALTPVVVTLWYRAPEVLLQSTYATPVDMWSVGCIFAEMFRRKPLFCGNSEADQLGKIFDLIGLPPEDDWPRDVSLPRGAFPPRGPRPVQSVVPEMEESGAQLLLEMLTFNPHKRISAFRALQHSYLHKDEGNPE
Sequence (P30281 1-264 partner): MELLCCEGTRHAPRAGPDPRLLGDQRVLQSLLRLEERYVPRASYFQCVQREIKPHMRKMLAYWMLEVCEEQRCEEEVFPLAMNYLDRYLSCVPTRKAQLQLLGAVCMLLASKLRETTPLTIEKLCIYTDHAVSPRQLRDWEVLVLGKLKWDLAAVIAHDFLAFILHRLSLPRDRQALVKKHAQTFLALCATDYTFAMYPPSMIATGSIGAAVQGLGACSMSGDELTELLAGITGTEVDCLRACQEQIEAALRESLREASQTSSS
TEST: Inhibition of CDK4/Cyclin D Retinoblastoma Kinase Activity
Assay type: biochemical
RUN CONDITIONS: at 0.03 μM
ENDPOINT LABEL: CDK4 % Inhibition at 0.03 μM (%)
Just the number in %, nothing appended.

Nc1nc(NC2CCN(C(=O)COc3cc(Cl)c(Cl)cc3Cl)CC2)sc1C(=O)c1c(F)cccc1F [Example R12]; 23

May I ask what CDK4 % Inhibition at 0.03 μM has been recorded for Nc1nc(NC2CCN(C(=O)c3ccccc3C(F)(F)F)CC2)sc1C(=O)c1c(F)cccc1F [Example R124] ?
38

May I ask what CDK4 % Inhibition at 0.03 μM has been recorded for Nc1nc(NC2CCN(C(=O)c3cccc(Cl)c3Cl)CC2)sc1C(=O)c1c(F)cccc1F [Example R106] ?
19

May I ask what CDK4 % Inhibition at 0.03 μM has been recorded for CCCCCc1ccc(C(=O)N2CCC(Nc3nc(N)c(C(=O)c4c(F)cccc4F)s3)CC2)cc1 [Example R158] ?
44
